Where do the numbers come from? From patent US12370232B2.

Experimental Target: telomerase (Homo sapiens)
Construct: endogenous in cells
Sequence (O14746 whole entry): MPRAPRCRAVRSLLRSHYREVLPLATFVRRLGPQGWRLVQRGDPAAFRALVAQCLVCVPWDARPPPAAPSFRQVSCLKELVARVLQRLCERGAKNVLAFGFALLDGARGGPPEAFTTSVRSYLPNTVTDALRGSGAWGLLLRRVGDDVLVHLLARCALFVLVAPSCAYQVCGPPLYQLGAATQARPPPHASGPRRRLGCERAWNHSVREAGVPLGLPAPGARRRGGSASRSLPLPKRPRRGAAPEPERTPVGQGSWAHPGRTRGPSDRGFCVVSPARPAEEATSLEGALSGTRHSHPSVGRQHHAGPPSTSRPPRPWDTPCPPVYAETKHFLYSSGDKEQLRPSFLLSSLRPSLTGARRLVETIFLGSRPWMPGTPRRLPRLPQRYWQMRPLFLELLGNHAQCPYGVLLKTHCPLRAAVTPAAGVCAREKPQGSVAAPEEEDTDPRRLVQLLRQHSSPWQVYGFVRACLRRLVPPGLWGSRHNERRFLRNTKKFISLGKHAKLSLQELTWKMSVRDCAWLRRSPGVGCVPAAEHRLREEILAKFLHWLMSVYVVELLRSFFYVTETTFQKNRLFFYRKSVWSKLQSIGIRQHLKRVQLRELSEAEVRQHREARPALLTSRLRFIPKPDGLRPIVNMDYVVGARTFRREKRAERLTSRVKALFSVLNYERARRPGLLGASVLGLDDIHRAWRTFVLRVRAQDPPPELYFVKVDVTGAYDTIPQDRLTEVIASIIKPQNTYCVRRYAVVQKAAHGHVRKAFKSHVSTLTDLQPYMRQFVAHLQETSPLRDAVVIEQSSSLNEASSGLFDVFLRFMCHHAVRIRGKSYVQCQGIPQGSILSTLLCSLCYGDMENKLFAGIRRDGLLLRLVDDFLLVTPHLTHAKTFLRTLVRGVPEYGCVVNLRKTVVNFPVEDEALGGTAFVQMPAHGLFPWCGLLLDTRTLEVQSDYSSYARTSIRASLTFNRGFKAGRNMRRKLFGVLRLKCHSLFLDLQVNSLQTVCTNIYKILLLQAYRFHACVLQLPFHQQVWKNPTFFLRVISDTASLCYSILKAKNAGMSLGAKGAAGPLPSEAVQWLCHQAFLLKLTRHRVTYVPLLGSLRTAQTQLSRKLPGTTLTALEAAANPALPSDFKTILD
Method Description: Cellular telomerase activity assay (TRAP)
Protocol Conditions: half-maximal telomerase activation, human cells
Measured Metric: pEC50
Entry type: numeric. Quantity: pEC50, the -log10 of concentration in molar units.

Kindly state the measured pEC50 obtained for CC(C)(O)[C@@H]1CC[C@](C)([C@H]2[C@@H](O)C[C@@]3(C)[C@@H]4C[C@H](O)[C@H]5C(C)(C)[C@@H](O)CC[C@@]56C[C@@]46CC[C@]23C)O1 [Cycloastragenol] with telomerase (Homo sapiens).
6.10
